# Organism: Mus musculus
# experiment notes: In vitro reversal activity versus ~90% block by rocuronium in isolated mouse hemidiaphragm, expressed as effective conc.
# Type: functional
Reported EC50 values follow for various molecules

molecule	EC50
O=C([O-])Cc1ccc(SCC2O[C@@H]3O[C@@H]4C(CO)O[C@H](O[C@@H]5C(CO)O[C@H](O[C@@H]6C(CO)O[C@H](O[C@@H]7C(CO)O[C@H](O[C@@H]8C(CO)O[C@H](O[C@@H]9C(CO)O[C@H](O[C@@H]%10C(CO)O[C@H](O[C@H]2C(O)C3O)C(O)C%10O)C(O)C9O)C(O)C8O)C(O)C7O)C(O)C6O)C(O)C5O)C(O)C4O)cc1.[Na+] (some centres not stated)	34.7 µM
O=C([O-])c1cccc(SCC2O[C@@H]3O[C@@H]4C(CO)O[C@H](O[C@@H]5C(CO)O[C@H](O[C@@H]6C(CO)O[C@H](O[C@@H]7C(CO)O[C@H](O[C@@H]8C(CO)O[C@H](O[C@@H]9C(CO)O[C@H](O[C@@H]%10C(CO)O[C@H](O[C@H]2C(O)C3O)C(O)C%10O)C(O)C9O)C(O)C8O)C(O)C7O)C(O)C6O)C(O)C5O)C(O)C4O)c1.[Na+] (some centres not stated)	> 18 µM

====

# Organism: Mus musculus
# experiment notes: In vitro reversal activity versus ~90% block by rocuronium in isolated mouse hemidiaphragm, expressed as effective conc.
# Type: functional
pEC50: −log10 of the molar value.

compound	bound operator	pEC50
OC[C@H]1O[C@@H]2O[C@H]3[C@H](O)[C@@H](O)[C@@H](O[C@H]4[C@H](O)[C@@H](O)[C@@H](O[C@H]5[C@H](O)[C@@H](O)[C@@H](O[C@H]6[C@H](O)[C@@H](O)[C@@H](O[C@H]7[C@H](O)[C@@H](O)[C@@H](O[C@H]8[C@H](O)[C@@H](O)[C@@H](O[C@H]1[C@H](O)[C@H]2O)O[C@@H]8CO)O[C@@H]7CO)O[C@@H]6CO)O[C@@H]5CO)O[C@@H]4CO)O[C@@H]3CO [BETADEX]	<	3.44
OCCCCSCC1O[C@@H]2O[C@@H]3C(CSCCCCO)O[C@H](O[C@@H]4C(CSCCCCO)O[C@H](O[C@@H]5C(CSCCCCO)O[C@H](O[C@@H]6C(CSCCCCO)O[C@H](O[C@@H]7C(CSCCCCO)O[C@H](O[C@@H]8C(CSCCCCO)O[C@H](O[C@@H]9C(CSCCCCO)O[C@H](O[C@H]1C(O)C2O)C(O)C9O)C(O)C8O)C(O)C7O)C(O)C6O)C(O)C5O)C(O)C4O)C(O)C3O (stereo not given in full)	=	5.19
O=C([O-])CCCSCC1O[C@@H]2O[C@@H]3C(CSCCCC(=O)[O-])O[C@H](O[C@@H]4C(CSCCCC(=O)[O-])O[C@H](O[C@@H]5C(CSCCCC(=O)[O-])O[C@@H](O[C@@H]6C(CSCCCC(=O)[O-])O[C@H](O[C@@H]7C(CSCCCC(=O)[O-])O[C@H](O[C@@H]8C(CSCCCC(=O)[O-])O[C@H](O[C@H]1C(O)C2O)C(O)C8O)C(O)C7O)C(O)C6O)C(O)C5O)C(O)C4O)C(O)C3O.[Na+].[Na+].[Na+].[Na+].[Na+].[Na+].[Na+] (stereo not given in full)	=	5.30
OCCCSCC1O[C@@H]2O[C@@H]3C(CSCCCO)O[C@H](O[C@@H]4C(CSCCCO)O[C@H](O[C@@H]5C(CSCCCO)O[C@H](O[C@@H]6C(CSCCCO)O[C@H](O[C@@H]7C(CSCCCO)O[C@H](O[C@@H]8C(CSCCCO)O[C@H](O[C@@H]9C(CSCCCO)O[C@H](O[C@H]1C(O)C2O)C(O)C9O)C(O)C8O)C(O)C7O)C(O)C6O)C(O)C5O)C(O)C4O)C(O)C3O (stereo not given in full)	=	5.39
O=C([O-])c1ccccc1SCC1O[C@@H]2O[C@@H]3C(CO)O[C@H](O[C@@H]4C(CO)O[C@H](O[C@@H]5C(CO)O[C@H](O[C@@H]6C(CO)O[C@H](O[C@@H]7C(CO)O[C@H](O[C@@H]8C(CO)O[C@H](O[C@@H]9C(CO)O[C@H](O[C@H]1C(O)C2O)C(O)C9O)C(O)C8O)C(O)C7O)C(O)C6O)C(O)C5O)C(O)C4O)C(O)C3O.[Na+] (stereo not given in full)	=	4.01

====

# Species: Mus musculus
# experiment notes: In vitro reversal activity versus ~90% block by rocuronium in isolated mouse hemidiaphragm, expressed as % of maximum reversal at 18 uM conc.
# Assay type: functional
Each record here notes measured Max reversal.
assay endpoint: Max reversal (%)

molecule	assay endpoint	numeric readout
O=C([O-])CSCC1O[C@@H]2O[C@@H]3C(CO)O[C@H](O[C@@H]4C(CO)O[C@H](O[C@@H]5C(CO)O[C@H](O[C@@H]6C(CO)O[C@H](O[C@@H]7C(CO)O[C@H](O[C@@H]8C(CO)O[C@H](O[C@@H]9C(CO)O[C@H](O[C@H]1C(O)C2O)C(O)C9O)C(O)C8O)C(O)C7O)C(O)C6O)C(O)C5O)C(O)C4O)C(O)C3O.[Na+] (some centres not stated)	Max reversal	28.9
O=C([O-])CCCSCC1O[C@@H]2O[C@@H]3C(CO)O[C@H](O[C@@H]4C(CO)O[C@H](O[C@@H]5C(CO)O[C@H](O[C@@H]6C(CO)O[C@H](O[C@@H]7C(CO)O[C@H](O[C@@H]8C(CO)O[C@H](O[C@@H]9C(CO)O[C@H](O[C@H]1C(O)C2O)C(O)C9O)C(O)C8O)C(O)C7O)C(O)C6O)C(O)C5O)C(O)C4O)C(O)C3O.[Na+] (some centres not stated)	Max reversal	14.4
O=C([O-])CCCSCC1O[C@@H]2O[C@@H]3C(CSCCCC(=O)[O-])O[C@H](O[C@@H]4C(CSCCCC(=O)[O-])O[C@H](O[C@@H]5C(CSCCCC(=O)[O-])O[C@H](O[C@@H]6C(CSCCCC(=O)[O-])O[C@H](O[C@@H]7C(CSCCCC(=O)[O-])O[C@H](O[C@H]1C(O)C2O)C(O)C7O)C(O)C6O)C(O)C5O)C(O)C4O)C(O)C3O.[Na+].[Na+].[Na+].[Na+].[Na+].[Na+] (some centres not stated)	Max reversal	5.3
OCCCCSCC1O[C@@H]2O[C@@H]3C(CSCCCCO)O[C@H](O[C@@H]4C(CSCCCCO)O[C@H](O[C@@H]5C(CSCCCCO)O[C@H](O[C@@H]6C(CSCCCCO)O[C@H](O[C@@H]7C(CSCCCCO)O[C@H](O[C@@H]8C(CSCCCCO)O[C@H](O[C@@H]9C(CSCCCCO)O[C@H](O[C@H]1C(O)C2O)C(O)C9O)C(O)C8O)C(O)C7O)C(O)C6O)C(O)C5O)C(O)C4O)C(O)C3O (some centres not stated)	Max reversal	78.9
O=C([O-])Cc1cccc(SCC2O[C@@H]3O[C@@H]4C(CO)O[C@H](O[C@@H]5C(CO)O[C@H](O[C@@H]6C(CO)O[C@H](O[C@@H]7C(CO)O[C@H](O[C@@H]8C(CO)O[C@H](O[C@@H]9C(CO)O[C@H](O[C@@H]%10C(CO)O[C@H](O[C@H]2C(O)C3O)C(O)C%10O)C(O)C9O)C(O)C8O)C(O)C7O)C(O)C6O)C(O)C5O)C(O)C4O)c1.[Na+] (some centres not stated)	Max reversal	30.4
O=C([O-])CSCC1O[C@@H]2O[C@@H]3C(CSCC(=O)[O-])O[C@H](O[C@@H]4C(CSCC(=O)[O-])O[C@H](O[C@@H]5C(CSCC(=O)[O-])O[C@H](O[C@@H]6C(CSCC(=O)[O-])O[C@H](O[C@@H]7C(CSCC(=O)[O-])O[C@H](O[C@H]1C(O)C2O)C(O)C7O)C(O)C6O)C(O)C5O)C(O)C4O)C(O)C3O.[Na+].[Na+].[Na+].[Na+].[Na+].[Na+] (some centres not stated)	Max reversal	22.8
O=C([O-])CCc1ccc(SCC2O[C@@H]3O[C@@H]4C(CO)O[C@H](O[C@@H]5C(CO)O[C@H](O[C@@H]6C(CO)O[C@H](O[C@@H]7C(CO)O[C@H](O[C@@H]8C(CO)O[C@H](O[C@@H]9C(CO)O[C@H](O[C@@H]%10C(CO)O[C@H](O[C@H]2C(O)C3O)C(O)C%10O)C(O)C9O)C(O)C8O)C(O)C7O)C(O)C6O)C(O)C5O)C(O)C4O)cc1.[Na+] (some centres not stated)	Max reversal	36.2

====

# Organism: Mus musculus
# experiment notes: In vitro reversal activity versus ~90% block by rocuronium in isolated mouse hemidiaphragm, expressed as effective conc.
# Type: functional
pEC50: −log10 of the molar value.
Below is a list of entries, each paired with its recorded pEC50 value.

compound	pEC50
O=C([O-])CCSCC1O[C@@H]2O[C@@H]3C(CSCCC(=O)[O-])O[C@H](O[C@@H]4C(CSCCC(=O)[O-])O[C@H](O[C@@H]5C(CSCCC(=O)[O-])O[C@H](O[C@@H]6C(CSCCC(=O)[O-])O[C@H](O[C@@H]7C(CSCCC(=O)[O-])O[C@H](O[C@H]1C(O)C2O)C(O)C7O)C(O)C6O)C(O)C5O)C(O)C4O)C(O)C3O.[Na+].[Na+].[Na+].[Na+].[Na+].[Na+] (stereo not given in full)	< 3.44
O=C([O-])CCc1ccc(SCC2O[C@@H]3O[C@@H]4C(CO)O[C@H](O[C@@H]5C(CO)O[C@H](O[C@@H]6C(CO)O[C@H](O[C@@H]7C(CO)O[C@H](O[C@@H]8C(CO)O[C@H](O[C@@H]9C(CO)O[C@H](O[C@@H]%10C(CO)O[C@H](O[C@H]2C(O)C3O)C(O)C%10O)C(O)C9O)C(O)C8O)C(O)C7O)C(O)C6O)C(O)C5O)C(O)C4O)cc1.[Na+] (stereo not given in full)	4.48
O=C([O-])Cc1cccc(SCC2O[C@@H]3O[C@@H]4C(CO)O[C@H](O[C@@H]5C(CO)O[C@H](O[C@@H]6C(CO)O[C@H](O[C@@H]7C(CO)O[C@H](O[C@@H]8C(CO)O[C@H](O[C@@H]9C(CO)O[C@H](O[C@@H]%10C(CO)O[C@H](O[C@H]2C(O)C3O)C(O)C%10O)C(O)C9O)C(O)C8O)C(O)C7O)C(O)C6O)C(O)C5O)C(O)C4O)c1.[Na+] (stereo not given in full)	< 4.74
O=C([O-])CCCSCC1O[C@@H]2O[C@@H]3C(CO)O[C@H](O[C@@H]4C(CO)O[C@H](O[C@@H]5C(CO)O[C@H](O[C@@H]6C(CO)O[C@H](O[C@@H]7C(CO)O[C@H](O[C@@H]8C(CO)O[C@H](O[C@@H]9C(CO)O[C@H](O[C@H]1C(O)C2O)C(O)C9O)C(O)C8O)C(O)C7O)C(O)C6O)C(O)C5O)C(O)C4O)C(O)C3O.[Na+] (stereo not given in full)	< 4.74
O=C([O-])CCc1cccc(SCC2O[C@@H]3O[C@@H]4C(CO)O[C@H](O[C@@H]5C(CO)O[C@H](O[C@@H]6C(CO)O[C@H](O[C@@H]7C(CO)O[C@H](O[C@@H]8C(CO)O[C@H](O[C@@H]9C(CO)O[C@H](O[C@@H]%10C(CO)O[C@H](O[C@H]2C(O)C3O)C(O)C%10O)C(O)C9O)C(O)C8O)C(O)C7O)C(O)C6O)C(O)C5O)C(O)C4O)c1.[Na+] (stereo not given in full)	< 4.74
